# Experimental Protocol: Partition coefficient (logP)
# Type: physicochemical
# Assay Context: octanol/water
Readout Label: logP

# count of solved cases: 6
                                   compound  readout_label  value_observed
0  CCCCN(CCCC)P(=O)(O)OCC1OC(n2cc(C)c(=O)[nH]c2=O)CC1N=[N+]=[N-] (configuration not stated)           logP               4
1  Cc1cn(C2CC(N=[N+]=[N-])C(COP(=O)(O)N3CCCCC3)O2)c(=O)[nH]c1=O (configuration not stated)           logP            2.77
2  Cc1cn(C2CC(N=[N+]=[N-])C(COP(=O)(O)N3CCOCC3)O2)c(=O)[nH]c1=O (configuration not stated)           logP            1.86
3  Cc1cn(C2CC(N=[N+]=[N-])C(COP(=O)(NC(C)C)OCCSC(=O)C(C)(C)C)O2)c(=O)[nH]c1=O (configuration not stated)           logP            1.91
4  CCCCNP(=O)(O)OCC1OC(n2cc(C)c(=O)[nH]c2=O)CC1N=[N+]=[N-] (configuration not stated)           logP            2.67
5  Cc1cn(C2CC(N=[N+]=[N-])C(COP(=O)(NC(C)(C)C)OCCSC(=O)C(C)(C)C)O2)c(=O)[nH]c1=O (configuration not stated)           logP            2.45

Would you kindly look at the next entry?
Look at this compound and give its reported logP. Cc1cn(C2CC(N=[N+]=[N-])C(COP(=O)(Nc3ccccc3)OCCSC(=O)C(C)(C)C)O2)c(=O)[nH]c1=O (configuration not stated)
2.55
